This document collects pIC50 values reported for Acetylcholinesterase (Homo sapiens).
Lab note: report pIC50 as minus log10 of the concentration in molar units, number only.

Observe how each entry below is paired with its result.
structure_smiles_string=COc1cccc(Oc2ccc3nc4c(c(N)c3c2)CCCC4)c1 numeric_value=5.58
structure_smiles_string=Cc1cccc(Oc2ccc3nc4c(c(N)c3c2)CCCC4)c1 numeric_value=5.04
structure_smiles_string=Cc1cccc(Oc2ccc3nc4c(c(N)c3c2)CCCCC4)c1 numeric_value=4.91
structure_smiles_string=Cc1ccc(Oc2ccc3nc4c(c(N)c3c2)CCCCC4)cc1 numeric_value=5.42
structure_smiles_string=Cc1cc(C)cc(Oc2ccc3nc4c(c(N)c3c2)CCCCC4)c1 numeric_value=6.00
structure_smiles_string=Nc1c2c(nc3ccc(Oc4ccc(Cl)cc4)cc13)CCC2 numeric_value=5.29

Now consider a different compound.
With Acetylcholinesterase (Homo sapiens) as the test system, COc1ccc(Oc2ccc3nc4c(c(N)c3c2)CCCC4)cc1 showed pIC50 of 5.54

###

biological target: Cholinesterase (Homo sapiens)
Sequence (P06276 whole entry): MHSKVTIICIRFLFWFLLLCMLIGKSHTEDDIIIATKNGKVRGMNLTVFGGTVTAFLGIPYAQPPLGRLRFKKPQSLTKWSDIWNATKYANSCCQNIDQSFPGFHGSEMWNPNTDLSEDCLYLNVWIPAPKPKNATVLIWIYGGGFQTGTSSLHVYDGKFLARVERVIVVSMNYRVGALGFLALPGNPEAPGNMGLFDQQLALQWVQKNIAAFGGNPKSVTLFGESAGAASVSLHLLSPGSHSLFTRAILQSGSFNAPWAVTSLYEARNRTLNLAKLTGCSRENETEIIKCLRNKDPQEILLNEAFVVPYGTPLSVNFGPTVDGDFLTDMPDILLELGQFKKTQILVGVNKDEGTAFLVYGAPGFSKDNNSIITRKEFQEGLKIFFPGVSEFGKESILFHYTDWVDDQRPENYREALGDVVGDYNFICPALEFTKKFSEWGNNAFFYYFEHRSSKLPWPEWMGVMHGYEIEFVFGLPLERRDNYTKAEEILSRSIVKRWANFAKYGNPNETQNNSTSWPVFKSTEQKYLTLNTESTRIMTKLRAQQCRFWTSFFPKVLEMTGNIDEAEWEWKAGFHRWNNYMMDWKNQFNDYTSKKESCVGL
Here, each record is paired with measured IC50 data.
Give just the numeric value; µM need not be written.

Observe how each entry below is paired with its result.
structure_smiles_string=Cc1ccc(Oc2ccc3nc4c(c(N)c3c2)CCCCC4)cc1 numeric_value=2.78
structure_smiles_string=Nc1c2c(nc3ccc(Oc4ccc(Cl)cc4)cc13)CCCC2 numeric_value=3.32
structure_smiles_string=CC(C)(C)c1ccc(Oc2ccc3nc4c(c(N)c3c2)CCC4)cc1 numeric_value=3.11
structure_smiles_string=COc1ccc(Oc2ccc3nc4c(c(N)c3c2)CCCC4)cc1 numeric_value=7.26

With Cholinesterase (Homo sapiens) as the test system, Cc1cccc(Oc2ccc3nc4c(c(N)c3c2)CCC4)c1 showed IC50 of 2.81

With Cholinesterase (Homo sapiens) as the test system, COc1ccc(Oc2ccc3nc4c(c(N)c3c2)CCCCC4)cc1 showed IC50 of 2.74

###

assay: Inhibition of recombinant human GluN1 deltaATD/GluN2B receptor expressed in HEK293 cells assessed as reduction in glutamate induced current at -40 mV holding potential by electrophysiology assay; assay type: cell-based
measure: IC50 (µM)
Give just the numeric value; µM need not be written.

# compound COc1ccccc1Oc1ccc2nc3c(c(N)c2c1)CCCC3.Cl ; its IC50 = 47.2

###

This document collects pIC50 values reported for Acetylcholinesterase (Homo sapiens, UniProt P22303).
Lab note: report pIC50 as minus log10 of the concentration in molar units, number only.

Observe how each entry below is paired with its result.
structure_smiles_string=Cc1ccc(Oc2ccc3nc4c(c(N)c3c2)CCCC4)cc1 numeric_value=5.48
structure_smiles_string=Cc1ccccc1Oc1ccc2nc3c(c(N)c2c1)CCCCC3 numeric_value=5.24
structure_smiles_string=Nc1c2c(nc3ccc(Oc4ccc(Cl)cc4)cc13)CCCC2 numeric_value=5.53
structure_smiles_string=CC(C)(C)c1ccc(Oc2ccc3nc4c(c(N)c3c2)CCC4)cc1 numeric_value=5.56
structure_smiles_string=COc1ccc(Oc2ccc3nc4c(c(N)c3c2)CCCCC4)cc1 numeric_value=5.44
structure_smiles_string=COc1cccc(Oc2ccc3nc4c(c(N)c3c2)CCCCC4)c1 numeric_value=5.37

# compound CC(C)(C)c1ccc(Oc2ccc3nc4c(c(N)c3c2)CCCCC4)cc1 ; its pIC50 = 4.14

# compound CC(C)(C)c1ccc(Oc2ccc3nc4c(c(N)c3c2)CCCC4)cc1 ; its pIC50 = 5.71

# compound Cc1ccccc1Oc1ccc2nc3c(c(N)c2c1)CCCC3 ; its pIC50 = 5.42

# compound COc1cccc(Oc2ccc3nc4c(c(N)c3c2)CCC4)c1 ; its pIC50 = 5.28

# compound Cc1cccc(Oc2ccc3nc4c(c(N)c3c2)CCC4)c1 ; its pIC50 = 5.28
